- Tested on: Mycobacteroides abscessus
- METHOD SUMMARY: Antibacterial activity against Mycobacterium abscessus ATCC 19977 assessed as bacterial growth inhibition incubated for 2 to 3 weeks by resazurin dye based assay
- Assay type: functional
- STUDY CONDITIONS: time 2-3 weeks
OBSERVATION TYPE: MIC (µM)
Answers are plain numbers, in µM.

Example results:
cpd_smiles=Clc1cccc(COc2ccccc2CNCc2ccccc2)c1 observation_type=MIC readout_value=31.3
cpd_smiles=Brc1cccc(COc2ccc(CNCc3ccccc3)cc2)c1 observation_type=MIC readout_value=31.3
cpd_smiles=Brc1ccc(COc2ccc(CNCc3ccccc3)cc2)cc1 observation_type=MIC readout_value=15.6
cpd_smiles=Clc1ccc(COc2ccc(CNCc3ccncc3)cc2)cc1 observation_type=MIC readout_value=62.5
cpd_smiles=Fc1ccc(COc2ccccc2CNCc2ccccc2)cc1 observation_type=MIC readout_value=31.3

Look up Mycobacteroides abscessus data: MIC of Cc1ccc(COc2ccc(CNCc3ccccc3)cc2)cc1 , then report it.
31.3
